- System: Adenosine deaminase (Bos taurus)
- Sequence (P56658 whole entry): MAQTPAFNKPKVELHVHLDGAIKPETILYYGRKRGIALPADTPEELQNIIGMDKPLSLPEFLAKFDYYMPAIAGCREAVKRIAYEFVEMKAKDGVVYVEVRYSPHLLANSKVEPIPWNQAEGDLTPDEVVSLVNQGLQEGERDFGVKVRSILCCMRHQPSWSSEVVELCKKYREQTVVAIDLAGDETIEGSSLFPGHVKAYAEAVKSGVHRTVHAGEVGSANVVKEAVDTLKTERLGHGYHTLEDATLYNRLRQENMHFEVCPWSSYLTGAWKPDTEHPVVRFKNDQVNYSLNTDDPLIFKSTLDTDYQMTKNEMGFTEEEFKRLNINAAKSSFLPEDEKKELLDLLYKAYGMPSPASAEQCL
Property: Ki (µM)

compound="COCCOC1c2c(ncn2Cc2ccc(OC)cc2)N=CN(C)N1C (stereo not drawn)" property=Ki reported=23

1: COc1ccc(Cn2cnc3c2C(OC(C)C)N(C)N(C)C=N3)cc1 (stereo not drawn)
2: CCOC1c2c(ncn2Cc2ccc(OC)cc2)N=CN(C)N1C (stereo not drawn)
Which is greater in Ki, the first item 1 or the second item 2 ? Returns: label corresponding to the selected item.
1
